Plant response rating, Wheat values for the compounds below.
Test system: wheat (Triticum aestivum)
Test: Test B pre-/postemergence
Assay type: in vivo
Settings: Rate 500 g/ha, Preemergence
measurementKind: Plant response rating, Wheat

structure=Cc1cnc(-c2ccc(C(F)(F)F)cc2)nc1Cn1cnc(C(F)(F)F)c1 measuredtarget="wheat (Triticum aestivum)" measurementkind="Plant response rating, Wheat" readoutvalue=1
structure=Cc1cnc(-n2ccc(C(F)(F)C(F)(F)F)n2)nc1C(=O)c1cccc(OC(F)(F)F)c1 measuredtarget="wheat (Triticum aestivum)" measurementkind="Plant response rating, Wheat" readoutvalue=0
structure=Cc1cnc(-n2ccc(C(F)(F)F)n2)nc1C(=O)c1cccc(OC(F)(F)F)c1 measuredtarget="wheat (Triticum aestivum)" measurementkind="Plant response rating, Wheat" readoutvalue=3
structure=Cc1cnc(-n2ccc(C(F)(F)F)n2)nc1Cn1ccc(C(F)(F)F)n1 measuredtarget="wheat (Triticum aestivum)" measurementkind="Plant response rating, Wheat" readoutvalue=6
structure=Cc1cnc(-c2ccc(C(F)(F)F)cc2)nc1Cn1ccc(C#N)n1 measuredtarget="wheat (Triticum aestivum)" measurementkind="Plant response rating, Wheat" readoutvalue=1
structure=Cc1cnc(-c2ccc(C(F)(F)F)cc2)nc1Cn1cc(I)cn1 measuredtarget="wheat (Triticum aestivum)" measurementkind="Plant response rating, Wheat" readoutvalue=0
structure=Cc1cnc(-c2ccc(Cl)cc2)nc1Cn1ccc(C(F)(F)F)n1 measuredtarget="wheat (Triticum aestivum)" measurementkind="Plant response rating, Wheat" readoutvalue=0

====

Tested on: rice (Oryza sativa)
Experiment: Test B flood test
Assay type: in vivo
Conditions: Rate 62 g/ha, Postemergence (flood test)
Protocol: At the same time, these crop and weed species were also treated with postemergence applications of test chemicals formulated in the same manner. Plants ranged in height from 2 to 18 cm (1- to 4-leaf stage) for postemergence treatments. […] Treated plants and controls were maintained in a greenhouse for twelve to sixteen days, after which all species were compared to controls and visually evaluated. […]
Response field label takes criterion met when Plant response rating, Rice is strictly below 2 and criterion not met in all other cases.

molecule=Cc1cnc(-c2ccc(C(F)(F)F)cc2)nc1Cn1cc(I)cn1 classname="criterion met"
molecule=Cc1cnc(-n2ccc(C(F)(F)F)n2)nc1Cn1ccc(C(F)(F)F)n1 classname="criterion not met"
molecule=Cc1cnc(-c2cccc(C(F)(F)F)c2)nc1Cc1cccc(C(F)(F)F)c1 classname="criterion met"
molecule=Cc1cnc(-c2ccccc2F)nc1Cc1cccc(C#N)c1 classname="criterion met"
molecule=Cc1cnc(-c2ccc(C(F)(F)F)cc2)nc1Cn1ccc(C(F)(F)F)n1 classname="criterion not met"
molecule="Cc1cnc(-c2ccc(C(F)(F)F)cc2)nc1C(Cl)c1cccc(C(F)(F)F)c1 (racemic)" classname="criterion not met"
molecule=COc1cnc(-n2ccc(C(F)(F)F)n2)nc1Cc1cccc(C(F)(F)F)c1 classname="criterion met"

====

Known Plant response rating, Morningglory of a selection of molecules
System: momingglory (Ipomoea hederacea)
Experiment: Test B pre-/postemergence
Format: in vivo
Conditions: Rate 62 g/ha, Postemergence
measurementKind: Plant response rating, Morningglory

molecule=Cc1cnc(-c2ccc(F)cc2F)nc1Cc1cccc(C(F)(F)F)c1 readoutvalue=3
molecule="Cc1cnc(-c2ccc(C(F)(F)F)cc2)nc1C(C)c1cccc(C(F)(F)F)c1 (racemic)" readoutvalue=3
molecule=Cc1cnc(-c2ccc(C(F)(F)F)cc2)nc1Cn1cnc(C(F)(F)F)n1 readoutvalue=7
molecule=Cc1cnc(-c2ccc(C(F)(F)F)cc2)nc1Cc1cccc(OC(F)(F)F)c1 readoutvalue=8
molecule="COC(c1cccc(C(F)(F)F)c1)c1nc(-c2ccc(C(F)(F)F)cc2)ncc1C (racemic)" readoutvalue=3
molecule=CCc1cnc(-n2ccc(C(F)(F)F)n2)nc1Cc1cccc(OC(F)(F)F)c1 readoutvalue=6
molecule=Cc1cnc(-c2ccc(C(F)(F)F)cc2)nc1Cn1ccc(C(F)(F)F)n1 readoutvalue=10
molecule=CCc1cnc(-c2ccc(C(F)(F)F)cc2)nc1Cc1cccc(OC(F)(F)F)c1 readoutvalue=8
